Data credit: ChEMBL document CHEMBL1961873

inhibition values for the compounds below.
biological target: Serine/threonine-protein kinase Chk1 (Homo sapiens); conditions: at 0.1 µM;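 note: reported figure is the mean percent inhibition of CHEK1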
measuredParameter: inhibition (%)

sampleSmiles	targetOrSystem	u	valueObserved
CCS(=O)(=O)c1ccc(OC)c(Nc2ncc(-c3cccc(F)c3)o2)c1	Serine/threonine-protein kinase Chk1 (Homo sapiens)	%	3.94
NS(=O)(=O)c1ccc(N/N=C2\C(=O)Nc3cccc(CCc4ccncc4)c32)cc1	Serine/threonine-protein kinase Chk1 (Homo sapiens)	%	1.74
FC(F)(F)CNc1nccc(-c2cnn3ncccc23)n1	Serine/threonine-protein kinase Chk1 (Homo sapiens)	%	0.28
CC(C)c1ccc(-c2cc(-c3c[nH]nc3-c3ccccn3)ccn2)cc1	Serine/threonine-protein kinase Chk1 (Homo sapiens)	%	-0.13
CN(c1ccc(NC(=O)NCCN2CCOCC2)cc1)c1ccnc(Nc2ccc(CS(C)(=O)=O)cc2)n1	Serine/threonine-protein kinase Chk1 (Homo sapiens)	%	4.02

----------
biological target: PAS domain-containing serine/threonine-protein kinase (Homo sapiens) (UniProt Q96RG2); details: at 1 µM;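 note: reported value is the mean percent inhibition of PASK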
Sequence (Q96RG2 whole entry, the tested form may be a part): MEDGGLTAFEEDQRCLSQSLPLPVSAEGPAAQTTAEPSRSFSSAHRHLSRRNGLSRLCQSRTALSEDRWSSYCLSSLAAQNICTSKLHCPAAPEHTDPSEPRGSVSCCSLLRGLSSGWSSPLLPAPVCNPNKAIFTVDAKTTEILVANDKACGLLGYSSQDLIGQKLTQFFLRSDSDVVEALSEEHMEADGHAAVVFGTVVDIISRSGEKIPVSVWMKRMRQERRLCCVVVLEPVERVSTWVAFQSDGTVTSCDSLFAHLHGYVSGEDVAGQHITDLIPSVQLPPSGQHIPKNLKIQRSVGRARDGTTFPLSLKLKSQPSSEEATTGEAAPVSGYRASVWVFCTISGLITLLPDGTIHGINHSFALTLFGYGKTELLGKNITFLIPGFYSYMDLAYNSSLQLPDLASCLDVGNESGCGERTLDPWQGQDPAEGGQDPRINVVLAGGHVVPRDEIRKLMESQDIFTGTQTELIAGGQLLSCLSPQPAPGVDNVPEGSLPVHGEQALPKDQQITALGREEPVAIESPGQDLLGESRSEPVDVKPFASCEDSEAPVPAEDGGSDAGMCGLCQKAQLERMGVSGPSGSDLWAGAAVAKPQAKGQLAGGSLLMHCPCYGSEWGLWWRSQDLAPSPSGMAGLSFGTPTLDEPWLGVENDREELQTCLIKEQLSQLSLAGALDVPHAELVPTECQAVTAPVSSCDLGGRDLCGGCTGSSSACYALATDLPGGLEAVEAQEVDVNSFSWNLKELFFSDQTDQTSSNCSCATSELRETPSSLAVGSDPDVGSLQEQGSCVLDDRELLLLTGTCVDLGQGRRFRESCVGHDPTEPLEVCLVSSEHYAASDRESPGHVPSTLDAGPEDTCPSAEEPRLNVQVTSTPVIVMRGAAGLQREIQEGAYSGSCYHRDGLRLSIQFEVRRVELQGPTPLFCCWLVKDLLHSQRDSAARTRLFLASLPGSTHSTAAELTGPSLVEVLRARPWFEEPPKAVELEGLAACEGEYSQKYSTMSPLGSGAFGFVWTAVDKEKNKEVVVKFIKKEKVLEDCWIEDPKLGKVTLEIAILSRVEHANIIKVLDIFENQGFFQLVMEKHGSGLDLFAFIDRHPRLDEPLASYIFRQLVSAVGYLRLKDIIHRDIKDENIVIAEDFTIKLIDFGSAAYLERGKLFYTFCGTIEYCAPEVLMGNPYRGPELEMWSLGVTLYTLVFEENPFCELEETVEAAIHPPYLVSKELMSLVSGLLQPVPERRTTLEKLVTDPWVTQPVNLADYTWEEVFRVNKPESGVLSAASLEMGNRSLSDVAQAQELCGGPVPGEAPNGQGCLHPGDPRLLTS
inhibition values for the compounds below.

compound	targetOrSystem	u	inhibition
Cc1c2ccc(N(C)c3ccnc(Nc4cccc(S(N)(=O)=O)c4)n3)cc2nn1C	PAS domain-containing serine/threonine-protein kinase (Homo sapiens) (UniProt Q96RG2)	%	-1.92
Fc1cccc(COc2ccc(Nc3ncncc3C#Cc3ccccc3)cc2Cl)c1	PAS domain-containing serine/threonine-protein kinase (Homo sapiens) (UniProt Q96RG2)	%	1.64
COc1ccc(Nc2ncc(-c3ccccc3)o2)cc1OC	PAS domain-containing serine/threonine-protein kinase (Homo sapiens) (UniProt Q96RG2)	%	0.81
COc1cc2c(cc1Nc1nc(Nc3cccc(F)c3C(N)=O)c3cc[nH]c3n1)N(C(=O)CN1CCN(C(C)C)CC1)CC2	PAS domain-containing serine/threonine-protein kinase (Homo sapiens) (UniProt Q96RG2)	%	-0.72
NS(=O)(=O)c1ccc(N/N=C2\C(=O)Nc3cccc(CCc4ccncc4)c32)cc1	PAS domain-containing serine/threonine-protein kinase (Homo sapiens) (UniProt Q96RG2)	%	1
CN(c1ccc(NC(=O)NCCN2CCOCC2)cc1)c1ccnc(Nc2ccc(CS(C)(=O)=O)cc2)n1	PAS domain-containing serine/threonine-protein kinase (Homo sapiens) (UniProt Q96RG2)	%	2.08
CCN1CCC(C(=O)Nc2n[nH]c3nnc(-c4cccc(F)c4F)cc23)CC1	PAS domain-containing serine/threonine-protein kinase (Homo sapiens) (UniProt Q96RG2)	%	0.26
CNC(=O)c1cncc(/C=C/c2ccccc2C)c1	PAS domain-containing serine/threonine-protein kinase (Homo sapiens) (UniProt Q96RG2)	%	0.95
OCCCNc1nccc(-c2c(-c3ccc(F)cc3)nn3cc(C(F)(F)F)ccc23)n1	PAS domain-containing serine/threonine-protein kinase (Homo sapiens) (UniProt Q96RG2)	%	-2.07
FC(F)(F)CNc1nccc(-c2cnn3ncccc23)n1	PAS domain-containing serine/threonine-protein kinase (Homo sapiens) (UniProt Q96RG2)	%	0.79
CCS(=O)(=O)c1ccc(OC)c(Nc2ncc(-c3cccc(C(C)=O)c3)o2)c1	PAS domain-containing serine/threonine-protein kinase (Homo sapiens) (UniProt Q96RG2)	%	2.34
CS(=O)(=O)CCNCc1ccc(-c2ccc3ncnc(Nc4ccc(OCc5cccc(C(F)(F)F)c5)cc4)c3c2)o1	PAS domain-containing serine/threonine-protein kinase (Homo sapiens) (UniProt Q96RG2)	%	-1.02
c1ccc(-c2n[nH]cc2-c2ccnc(-c3ccc(OCCn4ccnc4)cc3)c2)nc1	PAS domain-containing serine/threonine-protein kinase (Homo sapiens) (UniProt Q96RG2)	%	-0.48
COc1c(C(N)=O)cc(-c2ccc(Cl)cc2)cc1-c1ccc(S(N)(=O)=O)cc1	PAS domain-containing serine/threonine-protein kinase (Homo sapiens) (UniProt Q96RG2)	%	-1.49
Cc1nnc(-c2cccc(-c3ccc(C(=O)NCC4CC4)cc3)c2)o1	PAS domain-containing serine/threonine-protein kinase (Homo sapiens) (UniProt Q96RG2)	%	0.76
COc1ccc2ncn(-c3cc(O[C@H](C)c4ccccc4C(F)(F)F)c(C(N)=O)s3)c2c1	PAS domain-containing serine/threonine-protein kinase (Homo sapiens) (UniProt Q96RG2)	%	0.78
CNC(=O)c1sc(-n2cnc3cc(OC)c(OC)cc32)cc1OCc1ccccc1C(F)(F)F	PAS domain-containing serine/threonine-protein kinase (Homo sapiens) (UniProt Q96RG2)	%	0.79
O=C(Nc1n[nH]c2nnc(-c3cccnc3)cc12)C1CC1	PAS domain-containing serine/threonine-protein kinase (Homo sapiens) (UniProt Q96RG2)	%	0.02
O=C1Nc2ccccc2/C1=C1\CCc2cc(O)ccc21	PAS domain-containing serine/threonine-protein kinase (Homo sapiens) (UniProt Q96RG2)	%	-1.25
Cc1cc(O)cc(C)c1/C=C/c1cncc(C(=O)OC(C)(C)C)c1	PAS domain-containing serine/threonine-protein kinase (Homo sapiens) (UniProt Q96RG2)	%	0.02
NS(=O)(=O)c1cccc(N/C=C2\C(=O)Nc3ccccc32)c1	PAS domain-containing serine/threonine-protein kinase (Homo sapiens) (UniProt Q96RG2)	%	-1.04
N#Cc1cccc(Nc2ncc(-c3ccccc3)o2)c1	PAS domain-containing serine/threonine-protein kinase (Homo sapiens) (UniProt Q96RG2)	%	2.05
CC(C)c1ccc(-c2cc(-c3c[nH]nc3-c3ccccn3)ccn2)cc1	PAS domain-containing serine/threonine-protein kinase (Homo sapiens) (UniProt Q96RG2)	%	-1.24
COc1cc(N2CCN(C(C)C)CC2)ccc1Nc1nc(Nc2cccc3ncccc23)c2cc[nH]c2n1	PAS domain-containing serine/threonine-protein kinase (Homo sapiens) (UniProt Q96RG2)	%	-0.72
Cc1ccc(-c2cc3c(NC(=O)C4CC4)ncnc3o2)cc1	PAS domain-containing serine/threonine-protein kinase (Homo sapiens) (UniProt Q96RG2)	%	0.26
CS(=O)(=O)Nc1ccc(-c2cc(-c3ccccc3)cc(C(N)=O)c2N)cc1	PAS domain-containing serine/threonine-protein kinase (Homo sapiens) (UniProt Q96RG2)	%	-0.36
COc1ccccc1-c1cc(/C=C2\C(=O)Nc3ncc(Br)cc32)cc(Br)c1O	PAS domain-containing serine/threonine-protein kinase (Homo sapiens) (UniProt Q96RG2)	%	-3.29
CN(C)CCNC(=O)Nc1ccc(N(C)c2ccnc(Nc3ccc(CS(C)(=O)=O)cc3)n2)cc1	PAS domain-containing serine/threonine-protein kinase (Homo sapiens) (UniProt Q96RG2)	%	-0.25
c1cnn2ncc(-c3ccnc(NCCCN4CCOCC4)n3)c2c1	PAS domain-containing serine/threonine-protein kinase (Homo sapiens) (UniProt Q96RG2)	%	-2.98
CC1=C(C(=O)Nc2ccc3[nH]ncc3c2)C(c2ccc(F)cc2)N=C(c2ccc(C(F)(F)F)nc2)N1 (stereo unspecified)	PAS domain-containing serine/threonine-protein kinase (Homo sapiens) (UniProt Q96RG2)	%	-0.98
CS(=O)(=O)Nc1ccc(-c2ccc3c(NC(=O)C4CC4)n[nH]c3c2)cc1	PAS domain-containing serine/threonine-protein kinase (Homo sapiens) (UniProt Q96RG2)	%	-0.44
